Source: ChEMBL document CHEMBL1287771

In this section, each of the compounds is paired with its reported MIC.
- Tested on: Staphylococcus aureus
- Method Description: Antibacterial activity against efflux-resistant Staphylococcus aureus B0331 by agar microdilution method
- Assay type: functional
Readout Label: MIC (µg/mL)

[[record]]
compound = "CC[C@H]1OC(=O)[C@H](C)C(=O)[C@H](C)[C@@H](O[C@@H]2O[C@H](C)C[C@H](N(C)C)[C@H]2O)[C@](C)(OCC(O)CN2CCN(c3ccc4c(c3)c(=O)c(C(=O)O)cn4C3CC3)CC2)C[C@@H](C)NC(=O)[C@H](C)[C@H](O)[C@@]1(C)O (some centres undefined)"
units_symbol = "µg/mL"
measurement_qualifier = "="
recorded_measurement = 2

[[record]]
compound = "CC[C@H]1OC(=O)[C@H](C)[C@@H](O[C@@H]2C[C@@](C)(OC)[C@@H](O)[C@H](C)O2)[C@H](C)[C@@H](O[C@@H]2O[C@H](C)C[C@H](N(C)C)[C@H]2O)[C@](C)(OC/C=C/NCCc2ccc([N+](=O)[O-])cc2)C[C@@H](C)C(=O)N[C@H](C)[C@H](O)[C@@]1(C)O"
units_symbol = "µg/mL"
measurement_qualifier = "="
recorded_measurement = 32

[[record]]
compound = "C=CCO[C@]1(C)C[C@@H](C)C(=O)N[C@H](C)[C@H](O)[C@@](C)(O)[C@@H](CC)OC(=O)[C@H](C)[C@@H](O[C@@H]2C[C@@](C)(OC)[C@@H](O)[C@H](C)O2)[C@H](C)[C@H]1O[C@@H]1O[C@H](C)C[C@H](N(C)C)[C@H]1O"
units_symbol = "µg/mL"
measurement_qualifier = ">"
recorded_measurement = 64

[[record]]
compound = "CC[C@H]1OC(=O)[C@H](C)C(=O)[C@H](C)[C@@H](O[C@@H]2O[C@H](C)C[C@H](N(C)C)[C@H]2O)[C@](C)(OCCCC2CNc3ccccc3C2)C[C@@H](C)NC(=O)[C@H](C)[C@H](O)[C@@]1(C)O (some centres undefined)"
units_symbol = "µg/mL"
measurement_qualifier = "="
recorded_measurement = 64


---

- Test system: Staphylococcus aureus
- Method Description: Antibacterial activity against inducible macrolide-lincosamide-streptogramin B-resistant Staphylococcus aureus B0538 by agar microdilution method
- Format: functional
In this section, each of the compounds is paired with its reported MIC.
Readout Label: MIC (µg/mL)

[[record]]
compound = "C=CCO[C@]1(C)C[C@@H](C)C(=O)N[C@H](C)[C@H](O)[C@@](C)(O)[C@@H](CC)OC(=O)[C@H](C)[C@@H](O[C@@H]2C[C@@](C)(OC)[C@@H](O)[C@H](C)O2)[C@H](C)[C@H]1O[C@@H]1O[C@H](C)C[C@H](N(C)C)[C@H]1O"
system = "Staphylococcus aureus"
readout_label = "MIC"
measurement_qualifier = ">"
recorded_measurement = 64

[[record]]
compound = "CC[C@H]1OC(=O)[C@H](C)C(=O)[C@H](C)[C@@H](O[C@@H]2O[C@H](C)C[C@H](N(C)C)[C@H]2O)[C@](C)(OC/C=C/c2cnc3ccccc3c2)C[C@@H](C)C(=O)N[C@H](C)[C@H](O)[C@@]1(C)OC/C=C/c1cnc2ccccc2c1"
system = "Staphylococcus aureus"
readout_label = "MIC"
measurement_qualifier = "="
recorded_measurement = 0.25

[[record]]
compound = "CC[C@H]1OC(=O)[C@H](C)C(=O)[C@H](C)[C@@H](O[C@@H]2O[C@H](C)C[C@H](N(C)C)[C@H]2O)[C@](C)(OC/C=C/c2ccnc3ccccc23)C[C@@H](C)NC(=O)[C@H](C)[C@H](O)[C@@]1(C)O"
system = "Staphylococcus aureus"
readout_label = "MIC"
measurement_qualifier = "="
recorded_measurement = 1

[[record]]
compound = "C=CCO[C@]1(C)C[C@@H](C)NC(=O)[C@H](C)[C@H](O)[C@@](C)(O)[C@@H](CC)OC(=O)[C@H](C)C(=O)[C@H](C)[C@H]1O[C@@H]1O[C@H](C)C[C@H](N(C)C)[C@H]1O"
system = "Staphylococcus aureus"
readout_label = "MIC"
measurement_qualifier = "="
recorded_measurement = 2

[[record]]
compound = "C=CCO[C@]1(C)C[C@@H](C)NC(=O)[C@H](C)[C@H](O)[C@@](C)(O)[C@@H](CC)OC(=O)[C@H](C)[C@@H](O[C@@H]2C[C@@](C)(OC)[C@@H](O)[C@H](C)O2)[C@H](C)[C@H]1O[C@@H]1O[C@H](C)C[C@H](N(C)C)[C@H]1O"
system = "Staphylococcus aureus"
readout_label = "MIC"
measurement_qualifier = ">"
recorded_measurement = 64

[[record]]
compound = "CC[C@H]1OC(=O)[C@H](C)C(=O)[C@H](C)[C@@H](O[C@@H]2O[C@H](C)C[C@H](N(C)C)[C@H]2O)[C@](C)(OCC(O)CN(C)CCc2ccc([N+](=O)[O-])cc2)C[C@@H](C)NC(=O)[C@H](C)[C@H](O)[C@@]1(C)O (stereo partly drawn)"
system = "Staphylococcus aureus"
readout_label = "MIC"
measurement_qualifier = "="
recorded_measurement = 0.5

[[record]]
compound = "C=CCO[C@@]1(C)[C@@H](CC)OC(=O)[C@H](C)C(=O)[C@H](C)[C@@H](O[C@@H]2O[C@H](C)C[C@H](N(C)C)[C@H]2O)[C@](C)(OCC=C)C[C@@H](C)C(=O)N[C@H](C)[C@@H]1O"
system = "Staphylococcus aureus"
readout_label = "MIC"
measurement_qualifier = "="
recorded_measurement = 8

[[record]]
compound = "CC[C@H]1OC(=O)[C@H](C)C(=O)[C@H](C)[C@@H](O[C@@H]2O[C@H](C)C[C@H](N(C)C)[C@H]2O)[C@](C)(OC/C=C/c2cnc3ccccc3c2)C[C@@H](C)NC(=O)[C@H](C)[C@@H]2OC(=O)O[C@]12C"
system = "Staphylococcus aureus"
readout_label = "MIC"
measurement_qualifier = "="
recorded_measurement = 0.25

